B1: PhoQ; a variant is named by its letters at X, in order, P23837 (parent)
chain: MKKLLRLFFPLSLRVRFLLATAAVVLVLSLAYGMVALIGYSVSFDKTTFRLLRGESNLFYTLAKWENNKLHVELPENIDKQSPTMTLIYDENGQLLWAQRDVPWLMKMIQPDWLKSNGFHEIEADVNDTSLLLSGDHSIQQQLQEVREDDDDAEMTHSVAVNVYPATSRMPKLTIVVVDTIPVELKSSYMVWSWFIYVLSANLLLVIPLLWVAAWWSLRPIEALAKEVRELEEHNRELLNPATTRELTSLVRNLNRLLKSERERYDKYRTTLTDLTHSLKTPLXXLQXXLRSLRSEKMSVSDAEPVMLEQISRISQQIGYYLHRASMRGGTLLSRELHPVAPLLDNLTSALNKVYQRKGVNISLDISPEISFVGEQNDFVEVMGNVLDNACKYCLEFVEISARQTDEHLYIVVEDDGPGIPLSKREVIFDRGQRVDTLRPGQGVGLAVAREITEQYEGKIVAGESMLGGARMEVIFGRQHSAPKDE

Variants of: B1
TEST PROTOCOL: enrichment ratio after two sorts for PhoP signalling (ratio (wild type AVST 3.29)); higher = more functional
EXPERIMENTAL PARAMETERS: with PhoP (E. coli)
In all, about 140,000 sequences were measured (“enrichment ratio after two sorts for PhoP signalling”: median about 0, highest 2% from about 11 on). Shown is part of a subset that was picked to be rich in the highest values.
ENDPOINT NAME: enrichment ratio

Reported enrichment ratio, variant `NNDT` : ____
≤ 0.25
